TARGET OR SYSTEM: wild type MLL1 five-member complex (MLL1-5C) (Homo sapiens)
EXPERIMENTAL DETAILS: MLL1 Flashplate Assay
MEASUREMENT PARAMETERS: read-out: MLL1 flash plate
PROPERTY LABEL: IC50

MOLECULE	TARGET OR SYSTEM	TEST RESULT
Nc1ncnc2c1ncn2Cc1c(N2CC[C@](N)(C(=O)N[C@H]3C[C@@H]3c3ccccc3)C2)ccc(F)c1CN1CCOCC1 [Example 51]	wild type MLL1 five-member complex (MLL1-5C) (Homo sapiens)	< 60 nM
Nc1ncnc2c1ncn2Cc1c(N2CC[C@](N)(c3nc[nH]n3)C2)ccc(Cl)c1Cl [Example 85]	wild type MLL1 five-member complex (MLL1-5C) (Homo sapiens)	< 60 nM
Nc1ncnc2c1ncn2Cc1c(N2CC[C@](N)(CCc3ccccn3)C2)ccc(F)c1C(F)(F)F [Example 28]	wild type MLL1 five-member complex (MLL1-5C) (Homo sapiens)	> 100 nM
CCc1c(C#N)c(Cl)cc(N2CC[C@](N)(C(=O)NC3CC3)C2)c1Cn1cnc2c(N)ncnc21 [Example 101]	wild type MLL1 five-member complex (MLL1-5C) (Homo sapiens)	< 60 nM
Nc1ncnc2c1ncn2Cc1c(N2CC[C@](N)(C(=O)N[C@@H]3C[C@H]3CO)C2)ccc(F)c1C(F)(F)F [Example 127]	wild type MLL1 five-member complex (MLL1-5C) (Homo sapiens)	< 60 nM

Give IC50 for each of the items listed below.
1. Nc1ncnc2c1ncn2Cc1c(N2CC[C@](N)(C(=O)NC3CC3)C2)ccc(Br)c1C(F)(F)F [Example 146]
2. Nc1ncnc2c1ncn2Cc1c(Br)c(F)c2c(c1N1CC[C@](N)(C(=O)NC3CC3)C1)OCC2 [Example 20]
3. Nc1ncnc2c1ncn2Cc1c(Br)cc(Cl)cc1N1CC[C@](N)(C(=O)NC2CC2)C1 [Example 1]
4. Nc1ncnc2c1ncn2Cc1c(Br)cc(Cl)cc1N1CC[C@](N)(c2nc[nH]n2)C1 [Example 18]

1: < 60 nM; 2: < 60 nM; 3: < 60 nM; 4: < 60 nM

Give IC50 for each of the items listed below.
1. CN(C)Cc1c(F)ccc(N2CC[C@](N)(C(=O)NC3CC3)C2)c1Cn1cnc2c(N)ncnc21 [Example 45]
2. NC(=O)[C@@]1(N)CCN(c2cc(Cl)cc(-c3cccc(C4CCCCC4)c3)c2Cn2cnc3c(N)ncnc32)C1 [Example 16]
3. Nc1ncnc2c1ncn2Cc1c(N2CC[C@](N)(C(=O)NC3CC3)C2)ccc(C(F)(F)F)c1CN1CCC1 [Example 62]
4. Nc1ncnc2c1ncn2Cc1c(N2CC[C@](N)(C(=O)NC3CC3)C2)ccc(F)c1CN1CCOCC1 [Example 65]

["> 100 nM", "> 100 nM", "< 60 nM", "> 100 nM"]

Give IC50 for each of the items listed below.
1. N#CCN1CCN(C(=O)[C@@]2(N)CCN(c3ccc(F)c(C(F)(F)F)c3Cn3cnc4c(N)ncnc43)C2)CC1 [Example 136]
2. CCc1cc(-c2ccccn2)cc(N2CC[C@](N)(C(=O)NC3CC3)C2)c1Cn1cnc2c(N)ncnc21 [Example 99]
3. CCc1ccc(Cl)c(N2CC[C@](N)(C(=O)NC3CC3)C2)c1Cn1cnc2c(N)ncnc21 [Example 154]

["< 60 nM", "< 60 nM", "> 100 nM"]

Give IC50 for each of the items listed below.
1. CCc1c(Cl)ccc(N2CC[C@](N)(C(=O)NCCS(=O)(=O)CC)C2)c1Cn1cnc2c(N)ncnc21 [Example 149]
2. C[C@H]1CN(C(=O)[C@@]2(N)CCN(c3ccc(F)c(C(F)(F)F)c3Cn3cnc4c(N)ncnc43)C2)CCO1 [Example 131]
3. CCn1ncnc1CNC(=O)[C@@]1(N)CCN(c2ccc(F)c(C(F)(F)F)c2Cn2cnc3c(N)ncnc32)C1 [Example 140]
4. Nc1ncnc2c1ncn2Cc1c(N2CC[C@](N)(C(=O)NC3CC3)C2)ccc(F)c1CN1CCC1 [Example 70]
5. Nc1ncnc2c1ncn2Cc1c(N2CC[C@](N)(C(=O)NC3CC3)C2)ccc(Cl)c1COC(F)F [Example 86]
6. Nc1ncnc2c1ncn2Cc1c(Br)c(Cl)c(Cl)c(Cl)c1N1CCC(N)(C(=O)NC2CC2)C1 (stereo not drawn) [Example 44]
7. CCc1c(Cl)ccc(N2CC[C@](N)(C(=O)NC3CCS(=O)(=O)CC3)C2)c1Cn1cnc2c(N)ncnc21 [Example 153]

< 60 nM
< 60 nM
60 to 100 nM
> 100 nM
< 60 nM
< 60 nM
60 to 100 nM
